Cited source for all entries: ChEMBL document CHEMBL4368940

Experiment: Ratio of AUC in C57BL/6 mouse brain to plasma at 3 mg/kg, iv administered as single dose
Type: ADME, organism-based
Settings: read-out: Ratio AUC
experimental-endpoint: Kp

>  <molecular-string>
CC(C)(O)c1cccc(-c2ccc3nc(-c4ccc(Cl)cc4)cn3c2)c1

>  <experimental-endpoint>
Kp

>  <numeric-readout>
0.7

$$$$

---

Experiment: Tmax in C57BL/6 mouse plasma at 10 mg/kg, po administered as single dose
Assay type: ADME, organism-based

>  <molecular-string>
CC(C)(O)c1cccc(-c2ccc3nc(-c4ccc(Cl)cc4)cn3c2)c1

>  <Tmax>
24 h

$$$$

---

Test: Apparent half-life of the terminal disposition phase in C57BL/6 mouse plasma at 10 mg/kg, po administered as single dose
Type: ADME, organism-based
Conditions: read-out: t1/2 lambda z (converted)
experimental-endpoint: half-life (h)

>  <molecular-string>
CC(C)(O)c1cccc(-c2ccc3nc(-c4ccc(Cl)cc4)cn3c2)c1

>  <numeric-readout>
194

$$$$
